Source listed as ChEMBL document CHEMBL1201862.

System: HOP-92
Assay procedure: NCI tumour cell line growth inhibition, 48 h
Calls of active or inactive are those of the source. Cut-off read from the data, not from the text of the source: active = GI50 up to about 1.1 µM and inactive = higher.
Reply using exactly one outcome from yes (1) (active), no (0) (inactive)

Past entries and their recorded results:
Compound	Category
N=C(N)CCNC(=O)C1CCC(N)=N1 (stereo unspecified)	no (0)
CCNC(C)(C)C(SS)c1ccc(Br)cc1 (stereo unspecified)	no (0)
C=CC1(O)CCCC=C1COCc1ccccc1 (stereo unspecified)	no (0)
O=C(c1cccc(F)c1F)N1CCc2c([nH]c3ccccc23)C1c1ccc2c(c1)OCO2 (stereo unspecified)	no (0)
CC(c1ccc2c(c1)CCC1C2CC2OC23CC=CC(=O)[C@]13C)C1C[C@]2(C)O[C@]2(C)[C@H](O)O1 (stereo partly specified)	no (0)
CCCCc1ccc(Nc2nc(Cl)c3ncn(C4CC(Oc5ccc(C)cc5)C(COc5ccc(C)cc5)O4)c3n2)cc1 (stereo unspecified)	no (0)

**Q:** Identify the outcome logged in this assay for the compound shown: COc1ccc2nc3c(c(NCCCN(C)C)c2c1)CCCC3
**A:** no (0)

**Q:** Hi, sorry to bother you, what did the test record for COc1cc(N(C)C)ccc1C=c1c2ccccc2n2c1cc(-c1ccccc1)[n+]2C ?
**A:** yes (1)

**Q:** Name the outcome recorded for Nc1nc(N)c2ncn(Cc3ccccc3CCl)c2n1 in the assay.
**A:** no (0)

**Q:** So what was the verdict on CC(C)(C)C1=CC(CCC(=O)Nc2ccccc2[N+](=O)[O-])=NC(S)N1 (stereo unspecified) in this test?
**A:** no (0)

**Q:** # outcome recorded in this test, key = c1cc2nnc1SCCCSc1ccc(nn1)SCCCS2
**A:** no (0)
